Measured self-cleavage, listed per entry for reference.
B1: HDV Ribozyme (parent)
chain: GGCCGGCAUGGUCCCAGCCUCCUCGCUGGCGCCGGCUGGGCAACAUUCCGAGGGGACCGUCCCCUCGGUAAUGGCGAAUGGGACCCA

variants of: B1; experiment: self-cleavage, relative activity (ratio to wild type); higher = more cleavage; co-transcriptional
Number only, no unit.

Examples with their reported self-cleavage follow.
GGCCGGCAUGGUCCCAGCCUCAUCGCUGGCGCCGGCUGGGCAACAUUCCGAGGGGACCGUCCCCUCGGUAGUGGCGAAUGGGACCCA ... 0.393
GGCCGGCAUGGUUCCAGCCUCCUCGCUGGCGCCGGCUGGGCAACAUUCCGAUGGGACCGUCCCCUCGGUAAUGGCGAAUGGGACCCA ... 0.394
GGCCGGCAUGGUCCCAGCCUCCUCGCUGGCGCCGGCUGGGCAACAUUCUGAGGGGACCGUCCCCUCGGUAAUCGCGAAUGGGACCCA ... 0.409
GGCCGGCAUGGUCCCAGCCUCCUCGCUGGCGCCGGCUGGGGAACAUUCCGAGGGGACCGUCCCCUCGGUAACGGCGAAUGGGACCCA ... 0.201

Could you now look at the following variant, please?
Recall and state the measured self-cleavage for GGCCGGCAUGGCCCCAGCCUCCUCGCUGGCGCCGGCUGGGCAACAUUCCGAGGGGACCGUUCCCUCGGUAAUGGCGAAUGGGACCCA .
0.404
